test system: U2OS; assay: Multiplex assay against U2OS; assay type: toxicity, cell-based; details: human, 24 h, 1 µM, compound concentration 1 uM, replicate 1
readoutType: Population Fragmented Nuclei (%)

{"columns": ["molecule", "readoutNumber"],
 "data": [
  ["C=CC(=O)Nc1cccc(Sc2nc(Nc3ccc(N4CCN(C)CC4)cc3)ncc2Cl)c1", 10],
  ["C=CC(=O)Nc1ccc2[nH]c(=O)n(C3CCN(Cc4ccc(-c5nc6cc[nH]c(=O)c6cc5-c5ccccc5)cc4)CC3)c2c1", 1],
  ["Cc1nc(N2CC[C@H](O)C2)ncc1-c1cc(C(F)(F)F)cc2[nH]ncc12", 1],
  ["Cc1cccc(CN2CCN(C(c3ccccc3)c3ccc(Cl)cc3)CC2)c1.Cl.Cl (centres undefined)", 7]
]}

* * *

system: U2OS; assay: Multiplex assay against U2OS; type: toxicity, cell-based; details: human, 24 h, 1 µM, compound concentration 1 uM, replicate 1
Category | rule: reported Population Fragmented Nuclei (%) within range, see band A = under 7%, band B = from 7% up to 30%, band C = 30% and over

{"columns": ["compound", "studyTarget", "qualitativeLabel"],
 "data": [
  ["C=CC(=O)Nc1cccc(Oc2nc(Nc3ccc(N4CCN(C)CC4)cc3OC)ncc2Cl)c1", "U2OS", "band B"],
  ["Cc1ccc2c(c1)c1c(n2CCc2ccc(C)nc2)CCN(C)C1 [LATREPIRDINE]", "U2OS", "band A"],
  ["CC(C)Oc1ccccc1C(=O)Nc1ccccc1C(=O)Nc1cccc(S(=O)(=O)C(F)(F)F)c1", "U2OS", "band B"],
  ["O=C(c1cc2c(cc1F)OC(c1ccc(F)cc1)(c1ccc(Cl)cc1Cl)O2)N1CCOCC1 (centres undefined)", "U2OS", "band B"],
  ["CCc1ccc(OCc2ccccc2C(=O)Nc2ccc3nc(C)cc(N)c3c2)cc1.Cl", "U2OS", "band C"],
  ["COc1ccc(-c2ccc3ncc4c(c3c2)n(-c2ccc(N3CCNCC3)c(C(F)(F)F)c2)c(=O)n4C)cn1.O=C(O)/C=C\\C(=O)O", "U2OS", "band C"],
  ["CN1CCN(Cc2ccc(Nc3ncc(Cl)c(Nc4ccccc4S(=O)(=O)N(C)C)n3)cc2)CC1", "U2OS", "band B"],
  ["CNC(=O)Nc1ccc2c(c1)[C@@]1(CC2)OC(=O)N(CC(=O)N(Cc2ccc(F)cc2)[C@@H](C)C(F)(F)F)C1=O", "U2OS", "band A"]
]}

* * *

tested on: U2OS; assay: Multiplex assay against U2OS; type: toxicity, cell-based; conditions: human, 24 h, 10 µM, compound concentration 10 uM, replicate 2
readoutType: Population Hoechst High Intensity Objects (%)

{"columns": ["molecule", "valueUnit", "readoutNumber"],
 "data": [
  ["O=c1cc(N2CCOCC2)oc2c(-c3cccc4c3sc3ccccc34)cccc12", "%", 6],
  ["O=c1[nH]c2ccccc2n1C1CCN(Cc2ccc(-c3[nH]c4cc5ncnc5cc4nc3-c3ccccc3)cc2)CC1", "%", 14],
  ["CN1CCN(Cc2ccc(Nc3ncc(Cl)c(Nc4ccccc4S(=O)(=O)N(C)C)n3)cc2)CC1 [DUBERMATINIB]", "%", 14],
  ["CCc1ccc(OCc2ccccc2C(=O)Nc2ccc3nc(C)cc(N)c3c2)cc1.Cl", "%", 31],
  ["C[C@]12CC[C@@H]3c4ccc(O)cc4CC[C@H]3[C@@H]1CC[C@@H]2O [ESTRADIOL]", "%", 3]
]}
